- Tested on: 422866-222-R5-J1-PDC complex spheroid viability
- assayName: Anticancer human tumor 422866-222-R5-J1-PDC patient-derived pancreatic adenocarcinoma cell line growth inhibition [POLQ]
- settings: second compound 0.1 µM; first compound 0.1 µM; stronger effect = lower value
property: viability, T/C (%)

>>> observedvalue("COc1cccc(OCCCN)c1-c1cc(Nc2cnc(C#N)cn2)n[nH]1 + Nc1ccc(C#CCN(C(=O)Cc2ncc(C(F)(F)F)cc2C(F)(F)F)c2ccc(F)cc2)nn1")
32.8
>>> observedvalue("CCCS(=O)(=O)Nc1ccc(F)c(C(=O)c2c[nH]c3ncc(-c4ccc(Cl)cc4)cc23)c1F + Cc1cccc(N(C)C(=O)C2C(O)CCN2c2nc(C)cc(C(F)(F)F)c2C#N)c1")
99.1
>>> observedvalue("COc1cc(C2c3cc4c(cc3C(OC3OC5COC(C)OC5C(O)C3O)C3COC(=O)C23)OCO4)cc(OC)c1O (stereo unspecified) + COC1C(OC(N)=O)C(O)C(Oc2ccc3c(O)c(NC(=O)c4ccc(O)c(CC=C(C)C)c4)c(=O)oc3c2C)OC1(C)C")
94.7
>>> observedvalue("COc1cc2cc(C(=O)CCC(=O)O)sc2cc1OC + Nc1ccc(C#CCN(C(=O)Cc2ncc(C(F)(F)F)cc2C(F)(F)F)c2ccc(F)cc2)nn1")
89.9
>>> observedvalue("COc1cccc(OCCCN)c1-c1cc(Nc2cnc(C#N)cn2)n[nH]1 + Cc1cccc(N(C)C(=O)C2C(O)CCN2c2nc(C)cc(C(F)(F)F)c2C#N)c1")
27.3
>>> observedvalue("CC1COCCN1c1cc(C2(S(C)(=N)=O)CC2)nc(-c2ccnc3[nH]ccc23)n1 (stereo unspecified) + Nc1ccc(C#CCN(C(=O)Cc2ncc(C(F)(F)F)cc2C(F)(F)F)c2ccc(F)cc2)nn1")
96.5
>>> observedvalue("C=CC(=O)N1CCN(c2nc(=O)n(-c3c(C)ccnc3C(C)C)c3nc(-c4c(O)cccc4F)c(F)cc23)C(C)C1 (stereo unspecified) + Nc1ccc(C#CCN(C(=O)Cc2ncc(C(F)(F)F)cc2C(F)(F)F)c2ccc(F)cc2)nn1")
31.2
>>> observedvalue("CCc1cc2c(N3CCc4c(cc(Cn5ccnc5)cc4-c4cn(C)nc4C(F)(F)F)C3=O)ccnc2c(OC)n1 + COC1C(OC(N)=O)C(O)C(Oc2ccc3c(O)c(NC(=O)c4ccc(O)c(CC=C(C)C)c4)c(=O)oc3c2C)OC1(C)C")
108
>>> observedvalue("O=c1[nH]cc(F)c(=O)[nH]1 + Nc1ccc(C#CCN(C(=O)Cc2ncc(C(F)(F)F)cc2C(F)(F)F)c2ccc(F)cc2)nn1")
90.9
>>> observedvalue("CNCc1ccc(-c2[nH]c3cc(F)cc4c3c2CCNC4=O)cc1 + Cc1cccc(N(C)C(=O)C2C(O)CCN2c2nc(C)cc(C(F)(F)F)c2C#N)c1")
86.7
>>> observedvalue("COc1cccc(OCCCN)c1-c1cc(Nc2cnc(C#N)cn2)n[nH]1 + COC1C(OC(N)=O)C(O)C(Oc2ccc3c(O)c(NC(=O)c4ccc(O)c(CC=C(C)C)c4)c(=O)oc3c2C)OC1(C)C")
29.5
>>> observedvalue("Nc1ccn(C2OC(CO)C(O)C2(F)F)c(=O)n1 (stereo unspecified) + COC1C(OC(N)=O)C(O)C(Oc2ccc3c(O)c(NC(=O)c4ccc(O)c(CC=C(C)C)c4)c(=O)oc3c2C)OC1(C)C")
47.7
>>> observedvalue("CC[C@@]1(O)C(=O)OCc2c1cc1n(c2=O)Cc2cc3c(CN(C)C)c(O)ccc3nc2-1 + Nc1ccc(C#CCN(C(=O)Cc2ncc(C(F)(F)F)cc2C(F)(F)F)c2ccc(F)cc2)nn1")
33.6
>>> observedvalue("O=C(c1cc(Cc2n[nH]c(=O)c3ccccc23)ccc1F)N1CCN(C(=O)C2CC2)CC1 + Cc1cccc(N(C)C(=O)C2C(O)CCN2c2nc(C)cc(C(F)(F)F)c2C#N)c1")
104
>>> observedvalue("CC1COCCN1c1cc(C2(S(C)(=N)=O)CC2)nc(-c2ccnc3[nH]ccc23)n1 (stereo unspecified) + COC1C(OC(N)=O)C(O)C(Oc2ccc3c(O)c(NC(=O)c4ccc(O)c(CC=C(C)C)c4)c(=O)oc3c2C)OC1(C)C")
103
>>> observedvalue("C#Cc1c(F)ccc2cc(O)cc(-c3ncc4c(N5CC6CCC(C5)N6)nc(OCC56CCCN5CC(F)C6)nc4c3F)c12 (stereo unspecified) + COC1C(OC(N)=O)C(O)C(Oc2ccc3c(O)c(NC(=O)c4ccc(O)c(CC=C(C)C)c4)c(=O)oc3c2C)OC1(C)C")
86.3
>>> observedvalue("CC1COCCN1c1cc(-c2ccnn2C)c2ccnc(-c3ccn[nH]3)c2n1 (stereo unspecified) + Cc1cccc(N(C)C(=O)C2C(O)CCN2c2nc(C)cc(C(F)(F)F)c2C#N)c1")
55.3
>>> observedvalue("C#Cc1c(F)ccc2cc(O)cc(-c3ncc4c(N5CC6CCC(C5)N6)nc(OCC56CCCN5CC(F)C6)nc4c3F)c12 (stereo unspecified) + Cc1cccc(N(C)C(=O)C2C(O)CCN2c2nc(C)cc(C(F)(F)F)c2C#N)c1")
87.2
>>> observedvalue("COc1cc2cc(C(=O)CCC(=O)O)sc2cc1OC + COC1C(OC(N)=O)C(O)C(Oc2ccc3c(O)c(NC(=O)c4ccc(O)c(CC=C(C)C)c4)c(=O)oc3c2C)OC1(C)C")
95.8
>>> observedvalue("COc1cc(C2c3cc4c(cc3C(OC3OC5COC(C)OC5C(O)C3O)C3COC(=O)C23)OCO4)cc(OC)c1O (stereo unspecified) + Cc1cccc(N(C)C(=O)C2C(O)CCN2c2nc(C)cc(C(F)(F)F)c2C#N)c1")
92.9
>>> observedvalue("CCc1c2c(nc3ccc(O)cc13)-c1cc3c(c(=O)n1C2)COC(=O)[C@]3(O)CC + Nc1ccc(C#CCN(C(=O)Cc2ncc(C(F)(F)F)cc2C(F)(F)F)c2ccc(F)cc2)nn1")
32.4

---

- Tested on: 422866-222-R5-J1-PDC complex spheroid viability
- assayName: Anticancer human tumor 422866-222-R5-J1-PDC cell line growth inhibition [POLQ];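 further: spheroids exposed to compounds for one week before readout; percent of DMSO vehicle wells luminescence so 100% = untreated viability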
- settings: second compound 0.1 µM; first compound 0.0316 µM; stronger effect = lower value
- Description: Multicellular complex tumor spheroid response to Polymerase (POL) inhibitors (novobiocin, ART-558, RP6685) in combination with a variety of drugs and investigational agents in selected tumor cell lines The POL inhibitors (novobiocin, ART-558, and RP6685) were evaluated both individually and in combination with standard of care and investigational anticancer small molecules within a complex spheroid model of solid tumors. . […]
property: viability, T/C (%)

>>> observedvalue("CCc1cc2c(N3CCc4c(cc(Cn5ccnc5)cc4-c4cn(C)nc4C(F)(F)F)C3=O)ccnc2c(OC)n1 + Cc1cccc(N(C)C(=O)C2C(O)CCN2c2nc(C)cc(C(F)(F)F)c2C#N)c1")
88.4
>>> observedvalue("Nc1ccn(C2OC(CO)C(O)C2(F)F)c(=O)n1 (stereo not given) + COC1C(OC(N)=O)C(O)C(Oc2ccc3c(O)c(NC(=O)c4ccc(O)c(CC=C(C)C)c4)c(=O)oc3c2C)OC1(C)C")
75.6
>>> observedvalue("CC1COCCN1c1cc(C2(O)CC3CCC(C2)O3)c2cnn(-c3ccn[nH]3)c2n1 (stereo not given) + COC1C(OC(N)=O)C(O)C(Oc2ccc3c(O)c(NC(=O)c4ccc(O)c(CC=C(C)C)c4)c(=O)oc3c2C)OC1(C)C")
73.5
>>> observedvalue("CCc1c2c(nc3ccc(O)cc13)-c1cc3c(c(=O)n1C2)COC(=O)[C@]3(O)CC + Nc1ccc(C#CCN(C(=O)Cc2ncc(C(F)(F)F)cc2C(F)(F)F)c2ccc(F)cc2)nn1")
35
>>> observedvalue("CC[C@@]1(O)C(=O)OCc2c1cc1n(c2=O)Cc2cc3c(CN(C)C)c(O)ccc3nc2-1 + COC1C(OC(N)=O)C(O)C(Oc2ccc3c(O)c(NC(=O)c4ccc(O)c(CC=C(C)C)c4)c(=O)oc3c2C)OC1(C)C")
32.3
>>> observedvalue("C=CC(=O)N1CCN(c2nc(=O)n(-c3c(C)ccnc3C(C)C)c3nc(-c4c(O)cccc4F)c(F)cc23)C(C)C1 (stereo not given) + Nc1ccc(C#CCN(C(=O)Cc2ncc(C(F)(F)F)cc2C(F)(F)F)c2ccc(F)cc2)nn1")
32
>>> observedvalue("Cn1ncnc1[C@H]1c2n[nH]c(=O)c3cc(F)cc(c23)N[C@@H]1c1ccc(F)cc1 + Nc1ccc(C#CCN(C(=O)Cc2ncc(C(F)(F)F)cc2C(F)(F)F)c2ccc(F)cc2)nn1")
81.7
>>> observedvalue("O=c1[nH]cc(F)c(=O)[nH]1 + COC1C(OC(N)=O)C(O)C(Oc2ccc3c(O)c(NC(=O)c4ccc(O)c(CC=C(C)C)c4)c(=O)oc3c2C)OC1(C)C")
109
>>> observedvalue("CCc1cc2c(N3CCc4c(cc(Cn5ccnc5)cc4-c4cn(C)nc4C(F)(F)F)C3=O)cc(C)nc2c(OC)n1 + COC1C(OC(N)=O)C(O)C(Oc2ccc3c(O)c(NC(=O)c4ccc(O)c(CC=C(C)C)c4)c(=O)oc3c2C)OC1(C)C")
100
>>> observedvalue("C#Cc1c(F)ccc2cc(O)cc(-c3ncc4c(N5CC6CCC(C5)N6)nc(OCC56CCCN5CC(F)C6)nc4c3F)c12 (stereo not given) + Cc1cccc(N(C)C(=O)C2C(O)CCN2c2nc(C)cc(C(F)(F)F)c2C#N)c1")
92.1
>>> observedvalue("O=C(c1cc(Cc2n[nH]c(=O)c3ccccc23)ccc1F)N1CCN(C(=O)C2CC2)CC1 + Cc1cccc(N(C)C(=O)C2C(O)CCN2c2nc(C)cc(C(F)(F)F)c2C#N)c1")
95.3
>>> observedvalue("COc1cccc(OCCCN)c1-c1cc(Nc2cnc(C#N)cn2)n[nH]1 + Nc1ccc(C#CCN(C(=O)Cc2ncc(C(F)(F)F)cc2C(F)(F)F)c2ccc(F)cc2)nn1")
33.6
>>> observedvalue("COc1cc(C2c3cc4c(cc3C(OC3OC5COC(C)OC5C(O)C3O)C3COC(=O)C23)OCO4)cc(OC)c1O (stereo not given) + Cc1cccc(N(C)C(=O)C2C(O)CCN2c2nc(C)cc(C(F)(F)F)c2C#N)c1")
101
>>> observedvalue("CCCS(=O)(=O)Nc1ccc(F)c(C(=O)c2c[nH]c3ncc(-c4ccc(Cl)cc4)cc23)c1F + COC1C(OC(N)=O)C(O)C(Oc2ccc3c(O)c(NC(=O)c4ccc(O)c(CC=C(C)C)c4)c(=O)oc3c2C)OC1(C)C")
119
>>> observedvalue("C=CCn1c(=O)c2cnc(Nc3ccc(N4CCN(C)CC4)cc3)nc2n1-c1cccc(C(C)(C)O)n1 + Cc1cccc(N(C)C(=O)C2C(O)CCN2c2nc(C)cc(C(F)(F)F)c2C#N)c1")
101
>>> observedvalue("CNCc1ccc(-c2[nH]c3cc(F)cc4c3c2CCNC4=O)cc1 + COC1C(OC(N)=O)C(O)C(Oc2ccc3c(O)c(NC(=O)c4ccc(O)c(CC=C(C)C)c4)c(=O)oc3c2C)OC1(C)C")
124
>>> observedvalue("O=c1[nH]cc(F)c(=O)[nH]1 + Cc1cccc(N(C)C(=O)C2C(O)CCN2c2nc(C)cc(C(F)(F)F)c2C#N)c1")
111
>>> observedvalue("C#Cc1c(F)ccc2cc(O)cc(-c3ncc4c(N5CC6CCC(C5)N6)nc(OCC56CCCN5CC(F)C6)nc4c3F)c12 (stereo not given) + Nc1ccc(C#CCN(C(=O)Cc2ncc(C(F)(F)F)cc2C(F)(F)F)c2ccc(F)cc2)nn1")
101
>>> observedvalue("C=CC(=O)N1CCN(c2nc(=O)n(-c3c(C)ccnc3C(C)C)c3nc(-c4c(O)cccc4F)c(F)cc23)C(C)C1 (stereo not given) + COC1C(OC(N)=O)C(O)C(Oc2ccc3c(O)c(NC(=O)c4ccc(O)c(CC=C(C)C)c4)c(=O)oc3c2C)OC1(C)C")
32.8
>>> observedvalue("COc1cccc(OCCCN)c1-c1cc(Nc2cnc(C#N)cn2)n[nH]1 + Cc1cccc(N(C)C(=O)C2C(O)CCN2c2nc(C)cc(C(F)(F)F)c2C#N)c1")
31.4
